- System name: refolded pepsin (Rp) (Sus scrofa, UniProt P00791)
- Construct: Only the R13 and K36 side-chains of the PS form hydrogen bonds with the mature pepsin domain; purchased Sigma (St. Louis, MO, USA)
- Sequence (P00791 60-385): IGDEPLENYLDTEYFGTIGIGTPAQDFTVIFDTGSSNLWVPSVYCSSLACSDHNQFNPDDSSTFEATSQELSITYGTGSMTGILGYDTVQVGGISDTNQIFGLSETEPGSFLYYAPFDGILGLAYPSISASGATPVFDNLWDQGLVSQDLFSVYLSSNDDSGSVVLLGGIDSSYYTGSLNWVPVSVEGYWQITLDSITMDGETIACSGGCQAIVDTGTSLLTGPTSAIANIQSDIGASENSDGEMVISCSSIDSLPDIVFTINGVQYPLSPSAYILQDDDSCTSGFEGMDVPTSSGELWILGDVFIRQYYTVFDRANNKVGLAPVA
- Assay details: PS-catalyzed folding of Rp to Np (recovery of Np activity)
- Assay type: biochemical, porcine
- Measurement setup: 1 µM Rp, 30 µM PS, pH 5.3 (20 mM acetic acid/NaOH, 100 mM NaCl), 15°C; Np activity assayed at pH 1.2, 25°C with KPAEFF(NO2)AL; monoexponential fit; mean ± SD from non-linear curve fitting, 3-5 measurements
Where no end group is shown, it is not given here.
Recorded k f (PS-catalyzed folding rate constant) by entry
Property label: k f (PS-catalyzed folding rate constant) (min⁻¹)

Ordered residues	Reading unit	Quantitative result
LVKVPLVRKKSLRQNLIKNGKLKDALKTHKHNPASKYFPEAAAL [F25A]	min⁻¹	0.26
LVKAPLVRKKSLRQNLIKNGKLKDFLKTHKHNPASKYFPEAAAL [V4A]	min⁻¹	0.27
LVKVPLVRKKSLAQNLIKNGKLKDFLKTHKHNPASKYFPEAAAL [R13A]	min⁻¹	0.24
LVKVPLVRKKSLRQNLIKNGKLKDFLKTHKHNPASAYFPEAAAL [K36A]	min⁻¹	0.28
LVKVPLVRKKSLRQNLIKNGKLKDFLKTHKHNPASKYFPEAAAL [WT]	min⁻¹	1.42
